// provenance: ChEMBL document CHEMBL3585336

# Study Target: Amine oxidase [flavin-containing] B (Bos taurus)
# Sequence (P56560 whole entry): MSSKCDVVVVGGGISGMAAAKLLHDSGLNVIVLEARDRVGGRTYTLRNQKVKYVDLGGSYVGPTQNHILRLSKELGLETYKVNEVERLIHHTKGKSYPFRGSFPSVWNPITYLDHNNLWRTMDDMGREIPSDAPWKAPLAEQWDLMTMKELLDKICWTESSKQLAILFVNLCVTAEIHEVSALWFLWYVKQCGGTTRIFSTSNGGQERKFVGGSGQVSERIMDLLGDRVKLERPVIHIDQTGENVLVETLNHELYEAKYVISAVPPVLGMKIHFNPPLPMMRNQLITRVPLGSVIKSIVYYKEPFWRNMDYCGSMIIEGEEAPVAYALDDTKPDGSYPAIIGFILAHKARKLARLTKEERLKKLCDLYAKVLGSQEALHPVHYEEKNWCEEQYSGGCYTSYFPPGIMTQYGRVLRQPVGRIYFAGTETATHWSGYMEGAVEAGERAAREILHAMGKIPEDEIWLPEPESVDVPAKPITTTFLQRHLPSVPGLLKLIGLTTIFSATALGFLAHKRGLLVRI
Quantity Kind: pIC50
# reply with the number alone; pIC50 is -log10 of concentration in mol/L

// solved cases for pIC50 follow
COC(=O)CCCN1C(=O)c2ccccc2NC1c1ccc2c(c1)OCO2 (configuration not stated)	3.18
COC(=O)CCNC(=O)c1ccccc1N	3.25
COC(=O)CCN1C(=O)c2ccccc2NC1c1ccccc1 (configuration not stated)	3.07
COC(=O)CCN1C(=O)c2ccccc2NC1c1ccc(Cl)cc1 (configuration not stated)	3.14
COC(=O)CCCN1C(=O)c2ccccc2NC1c1ccco1 (configuration not stated)	3.11
NNC(=O)CN1C(=O)c2ccccc2NC1c1ccco1 (configuration not stated)	3.25
COC(=O)CNC(=O)c1ccccc1N	3.07
COC(=O)CN1C(=O)c2ccccc2NC1c1ccc(OC)cc1 (configuration not stated)	3.25

Next:
Query: Look up pIC50 for this molecule: `COC(=O)CCCCCNC(=O)c1ccccc1N`
Response: 3.36
